Data provenance is ChEMBL document CHEMBL4627293.

system: Escherichia coli; experiment: Antimicrobial activity against Escherichia coli ATCC 25922; assay type: functional
assay-endpoint: MIC (µg/mL)

CC(C)NC(=N)c1ccc2cc(-c3ccc(Oc4ccc(-c5cc6ccc(C(=N)NC(C)C)cc6[nH]5)nc4)cc3)[nH]c2c1: 2
CNC(=N)c1ccc2cc(-c3ccc(Oc4ccc(-c5cc6ccc(C(=N)NC)cc6[nH]5)c(C(F)(F)F)c4)cn3)[nH]c2c1: 8
COc1cc(Oc2ccc(-c3cc4ccc(C(=N)N(C)C)cc4[nH]3)cc2)ccc1-c1cc2ccc(C(=N)N(C)C)cc2[nH]1: 2
CC(C)NC(=N)c1ccc2cc(-c3ccc(Oc4ccc(-c5cc6ccc(C(=N)NC(C)C)cc6[nH]5)cn4)cc3)[nH]c2c1: 4
CNC(=N)c1ccc2cc(-c3ccc(Oc4ccc(-c5cc6ccc(C(=N)NC)cc6[nH]5)cc4)cc3)[nH]c2c1: 128
CNC(=N)c1ccc2cc(-c3ccc(Oc4ccc(-c5cc6ccc(C(=N)NC)cc6[nH]5)nc4)cc3)[nH]c2c1: 16
CN(C)C(=N)c1ccc2cc(-c3ccc(Oc4ccc(-c5cc6ccc(C(=N)N(C)C)cc6[nH]5)c(C(F)(F)F)c4)cc3)[nH]c2c1: 64

###

system: Enterococcus faecalis; experiment: Antimicrobial activity against Vancomycin-resistant Enterococcus faecalis ATCC 51299; format: functional
// MIC lookup, one value per entry
assay-endpoint: MIC (µg/mL)

CNC(=N)c1ccc2cc(-c3ccc(Oc4ccc(-c5cc6ccc(C(=N)NC)cc6[nH]5)c(C(F)(F)F)c4)cn3)[nH]c2c1: 1
COc1cc(Oc2ccc(-c3cc4ccc(C(=N)NC(C)C)cc4[nH]3)cc2)ccc1-c1cc2ccc(C(=N)NC(C)C)cc2[nH]1: 1
CN(C)C(=N)c1ccc2cc(-c3ccc(Oc4ccc(-c5cc6ccc(C(=N)N(C)C)cc6[nH]5)cc4)cc3)[nH]c2c1: 1
CN(C)C(=N)c1ccc2cc(-c3ccc(Oc4ccc(-c5cc6ccc(C(=N)N(C)C)cc6[nH]5)c(C(F)(F)F)c4)cc3)[nH]c2c1: 8
CC(C)NC(=N)c1ccc2cc(-c3ccc(Oc4ccc(-c5cc6ccc(C(=N)NC(C)C)cc6[nH]5)c(C(F)(F)F)c4)cn3)[nH]c2c1: 0.5
CNC(=N)c1ccc2cc(-c3ccc(Oc4ccc(-c5cc6ccc(C(=N)NC)cc6[nH]5)nc4)cc3)[nH]c2c1: 2
C/N=C(\NC)c1ccc2cc(-c3ccc(Oc4ccc(-c5cc6ccc(/C(=N\C)NC)cc6[nH]5)cc4)cc3)[nH]c2c1: 16
CNC(=N)c1ccc2cc(-c3ccc(Oc4ccc(-c5cc6ccc(C(=N)NC)cc6[nH]5)c(C(F)(F)F)c4)cc3)[nH]c2c1: 1
CC(C)NC(=N)c1ccc2cc(-c3ccc(Oc4ccc(-c5cc6ccc(C(=N)NC(C)C)cc6[nH]5)c(Cl)c4)cc3)[nH]c2c1: 16
CC(C)NC(=N)c1ccc2cc(-c3ccc(Oc4ccc(-c5cc6ccc(C(=N)NC(C)C)cc6[nH]5)c(C(F)(F)F)c4)cc3)[nH]c2c1: 2
CNC(=N)c1ccc2cc(-c3ccc(Oc4ccc(-c5cc6ccc(C(=N)NC)cc6[nH]5)cc4)cc3)[nH]c2c1: 1
CN(C)C(=N)c1ccc2cc(-c3ccc(Oc4ccc(-c5cc6ccc(C(=N)N(C)C)cc6[nH]5)c(Cl)c4)cc3)[nH]c2c1: 16
CN(C)C(=N)c1ccc2cc(-c3ccc(Oc4ccc(-c5cc6ccc(C(=N)N(C)C)cc6[nH]5)c(C(F)(F)F)c4)cn3)[nH]c2c1: 2
CN(C)C(=N)c1ccc2cc(-c3ccc(Oc4ccc(-c5cc6ccc(C(=N)N(C)C)cc6[nH]5)cn4)cc3)[nH]c2c1: 2
